Assay: Antiproliferative activity against human PC9 cells at 10 uM after 48 hrs by SRB assay
Assay type: functional
Details: PC-9, 48 h
// reported inhibition at 10 µM for each item listed
property.name: inhibition at 10 µM (%)

compound="O=C(Cc1ccccc1)N1CCc2c([nH]c3ccccc23)C1c1ccccc1 (stereo unspecified)" obs_value=10
compound=O=Cc1ccc(CC(=O)N2CCc3c([nH]c4ccccc34)C2)cc1 obs_value=21
compound=O=C(Cc1cccc(O)c1)N1CCc2c([nH]c3ccccc23)C1 obs_value=11
compound="CCC1c2[nH]c3ccccc3c2CCN1C(=O)Cc1ccccc1 (stereo unspecified)" obs_value=24
compound=Nc1ccc(CC(=O)N2CCc3c([nH]c4ccccc34)C2)cc1 obs_value=8
compound=O=C(c1ccccn1)N1CCc2c([nH]c3ccccc23)C1 obs_value=4
compound=O=C(Cc1ccc(O)c(O)c1)N1CCc2c([nH]c3ccccc23)C1 obs_value=26
compound=O=C(c1cccs1)N1CCc2c([nH]c3ccccc23)C1 obs_value=9
compound=O=C(Cc1ccc(Cl)cc1)N1CCc2c([nH]c3ccccc23)C1 obs_value=33
compound=O=C(Cc1ccccc1O)N1CCc2c([nH]c3ccccc23)C1 obs_value=33
compound="CC(C)(C)OC(=O)NC(Cc1ccccc1)C(=O)N1CCc2c([nH]c3ccccc23)C1 (stereo unspecified)" obs_value=0

---

Biological target: TGF-beta receptor type-1 (Homo sapiens) (UniProt P36897)
Sequence (P36897 whole entry, looked up): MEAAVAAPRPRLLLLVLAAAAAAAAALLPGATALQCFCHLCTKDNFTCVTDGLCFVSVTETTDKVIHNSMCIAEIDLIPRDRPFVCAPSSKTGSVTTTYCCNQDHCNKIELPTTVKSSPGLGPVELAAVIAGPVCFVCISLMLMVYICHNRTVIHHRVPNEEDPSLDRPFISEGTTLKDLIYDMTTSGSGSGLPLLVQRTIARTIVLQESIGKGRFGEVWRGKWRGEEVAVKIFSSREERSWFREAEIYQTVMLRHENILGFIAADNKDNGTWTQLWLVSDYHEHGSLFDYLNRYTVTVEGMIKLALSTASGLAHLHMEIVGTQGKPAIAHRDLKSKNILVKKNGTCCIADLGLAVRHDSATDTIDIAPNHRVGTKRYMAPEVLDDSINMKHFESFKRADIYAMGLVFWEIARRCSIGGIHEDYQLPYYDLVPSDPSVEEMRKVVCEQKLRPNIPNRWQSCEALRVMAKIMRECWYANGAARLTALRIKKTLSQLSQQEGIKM
Test: Inhibition of TGFbetaR1-mediated smad phosphorylation in human HaCaT cells at 1 uM measured within 24 hrs by dual-luciferase reporter gene assay
// reported inhibition for each item listed
property.name: inhibition (%)

molecule=O=C(Cc1ccc(F)cc1)N1CCc2c([nH]c3ccccc23)C1 obs_value=11.8
molecule=O=C(c1cccs1)N1CCc2c([nH]c3ccccc23)C1 obs_value=2.2
molecule=O=C(CCc1ccccc1)N1CCc2c([nH]c3ccccc23)C1 obs_value=31.1
molecule=O=C(Cc1ccc(O)cc1)N1CCc2c([nH]c3ccccc23)C1 obs_value=64.2
molecule="CC(C)(C)OC(=O)NC(C(=O)N1CCc2c([nH]c3ccccc23)C1)c1ccccc1 (centres undefined)" obs_value=58.8
molecule=O=C(c1ccccc1)N1CCc2c([nH]c3ccccc23)C1 obs_value=9.5
molecule="NC(C(=O)N1CCc2c([nH]c3ccccc23)C1)c1ccccc1 (centres undefined)" obs_value=10.9
molecule=O=C(N1CCc2c([nH]c3ccccc23)C1)C(O)(c1ccccc1)c1ccccc1 obs_value=12.3
molecule=O=C(Cc1ccc(O)c(O)c1)N1CCc2c([nH]c3ccccc23)C1 obs_value=21
molecule=O=C(Cc1ccc(CBr)cc1)N1CCc2c([nH]c3ccccc23)C1 obs_value=50.1
molecule=Nc1ccc(CC(=O)N2CCc3c([nH]c4ccccc34)C2)cc1 obs_value=18.1
molecule=O=C(Cc1ccccc1O)N1CCc2c([nH]c3ccccc23)C1 obs_value=19.7
molecule=O=C(Cc1ccc(Cl)cc1)N1CCc2c([nH]c3ccccc23)C1 obs_value=7.9
molecule=O=Cc1ccc(CC(=O)N2CCc3c([nH]c4ccccc34)C2)cc1 obs_value=11.8

---

Assay: Antimigratory activity against human H1299 cells assessed as inhibition of cell migration after 12 to 24 hrs by transwell migration assay
Format: functional, cell-based
Details: NCI-H1299
// reported IC50 for each item listed
property.name: IC50 (nM)

compound_smiles=NC(=O)c1ccc(-c2nc(-c3ccccn3)c(-c3ccc4c(c3)OCO4)[nH]2)cc1 rel== obs_value=500
compound_smiles=O=C(Cc1ccccc1)N1CCc2c([nH]c3ccccc23)C1 rel=< obs_value=500

---

Experiment: Antiproliferative activity against human H1299 cells after 48 hrs by SRB assay
Format: functional, cell-based
Settings: NCI-H1299, 48 h
pIC50: −log10 of the molar value.
property.name: pIC50

compound_smiles=O=C(Cc1ccccc1)N1CCc2c([nH]c3ccccc23)C1 property_name=pIC50 obs_value=5.09
compound_smiles=O=C(Cc1ccccc1)N1CCc2c([nH]c3ccc(F)cc23)C1 property_name=pIC50 obs_value=5.21

---

Test: Antimigratory activity against human H1299 cells assessed as decrease in cell migration after 12 hrs by wound healing assay
Details: NCI-H1299, 12 h
property.name: IC50 (nM)

compound_smiles=O=C(Cc1ccccc1)N1CCc2c([nH]c3ccccc23)C1 obs_value=100

---

// reported pIC50 for each item listed
Tested on: A549
Experiment: Antiproliferative activity against human A549 cells after 48 hrs by SRB assay
Type: functional, cell-based
Conditions: A549, 48 h
pIC50: −log10 of the molar value.
property.name: pIC50

compound_smiles=O=C(Cc1ccccc1)N1CCc2c([nH]c3ccc(F)cc23)C1 system_under_test=A549 property_name=pIC50 obs_value=5.31
compound_smiles=O=C(Cc1ccccc1)N1CCc2c([nH]c3ccccc23)C1 system_under_test=A549 property_name=pIC50 obs_value=5.10

---

Experiment: Antiproliferative activity against human PC9 cells at 10 uM after 48 hrs by SRB assay
Assay type: functional
Details: PC-9, 48 h
property.name: inhibition at 10 µM (%)

molecule="CC1c2[nH]c3ccc(O)cc3c2CCN1C(=O)Cc1ccccc1 (stereo not given)" property_name="inhibition at 10 µM" obs_value=8
molecule=O=C(N1CCc2c([nH]c3ccccc23)C1)C(O)(c1ccccc1)c1ccccc1 property_name="inhibition at 10 µM" obs_value=0
molecule=O=C(Cc1ccc(O)cc1)N1CCc2c([nH]c3ccccc23)C1 property_name="inhibition at 10 µM" obs_value=39
molecule="CC(C)(C)OC(=O)NC(C(=O)N1CCc2c([nH]c3ccccc23)C1)c1ccccc1 (stereo not given)" property_name="inhibition at 10 µM" obs_value=31
molecule=O=C(Cc1ccc(CBr)cc1)N1CCc2c([nH]c3ccccc23)C1 property_name="inhibition at 10 µM" obs_value=26
molecule=O=C(Cc1ccc(F)cc1)N1CCc2c([nH]c3ccccc23)C1 property_name="inhibition at 10 µM" obs_value=21
molecule="O=C(C(O)c1ccccc1)N1CCc2c([nH]c3ccccc23)C1 (stereo not given)" property_name="inhibition at 10 µM" obs_value=28
molecule=CCN(CC)c1ccc(CC(=O)N2CCc3c([nH]c4ccccc34)C2)cc1 property_name="inhibition at 10 µM" obs_value=18
molecule="O=C(O)CC1c2[nH]c3ccccc3c2CCN1C(=O)Cc1ccccc1 (stereo not given)" property_name="inhibition at 10 µM" obs_value=9
molecule=O=C(Cc1ccccc1)N1CCc2c([nH]c3ccc(F)cc23)C1 property_name="inhibition at 10 µM" obs_value=78
molecule="NC(C(=O)N1CCc2c([nH]c3ccccc23)C1)c1ccccc1 (stereo not given)" property_name="inhibition at 10 µM" obs_value=11
molecule=O=C(CCc1ccccc1)N1CCc2c([nH]c3ccccc23)C1 property_name="inhibition at 10 µM" obs_value=48
molecule=O=C(c1ccccc1)N1CCc2c([nH]c3ccccc23)C1 property_name="inhibition at 10 µM" obs_value=7
molecule=O=C(Cc1ccccc1)N1CCc2c([nH]c3ccc(Br)cc23)C1 property_name="inhibition at 10 µM" obs_value=47
molecule=O=C(Cc1ccccc1)N1CCc2c([nH]c3ccccc23)C1 property_name="inhibition at 10 µM" obs_value=59
